B1: Adenylate kinase, P07170 (parent)
chain: MSSSESIRMVLIGPPGAGKGTQAPNLQERFHAAHLATGDMLRSQIAKGTQLGLEAKKIMDQGGLVSDDIMVNMIKDELTNNPACKNGFILDGFPRTIPQAEKLDQMLKEQGTPLEKAIELKVDDELLVARITGRLIHPASGRSYHKIFNPPKEDMKDDVTGEALVQRSDDNADALKKRLAAYHAQTEPIVDFYKKTGIWAGVDASQPPATVWADILNKLGKD

- Variants of: B1
- Condition Details: Saccharomyces cerevisiae (strain ATCC 204508 / S288c); pH 7.5; 25 °C; Thermal; Fluorescence; MOPS-NaOH 30 mM; reversible: yes; structure 2AKY; whole UniProt chain shown
Reported unfolding free energy values follow for various variants

- Variant Id: "V10I"
  unfolding free energy (kcal/mol): 2.63
- Variant Id: "I215F"
  unfolding free energy (kcal/mol): 1.91
- Variant Id: "N171D"
  unfolding free energy (kcal/mol): 1.67
- Variant Id: "T79H"
  unfolding free energy (kcal/mol): 1.67
